Hello, the source for this data is the supplement of paper PMC9170038, in case you need it.

# Test system: MS2 coat protein
# Protocol Description: apparent KD of MS2 coat protein; designed switch direction (-1 OFF switch, 1 ON switch): -1; higher = weaker reporter binding
# Condition Parameters: input ligand: FMN 200 uM
Quick rule for you: apparent KD of MS2 coat protein at 80 nM or higher means Criterion met, lower means Criterion not met.

Primary Sequence	Label Class
GUAGCUCUCGAGGAUAUGGAUAGAAAAGUUAGUCCAGAAGGCGAGACAUGAGGAUCACCCAUGUUGGACUCUGC [Eternabot (L2) Solution 77] (Eterna round: R97, puzzle: Exclusion 6)	Criterion met
AGUAGGAGAGGAUAUACAAGAAGUCGAAAGACUUCAACUCAACAUGAGGAUCACCCAUGUAGAAGGCUCCUACA [Omei Ex2 BD A5] (Eterna round: R97, puzzle: Exclusion 2)	Criterion met
AGCCAUACAGGAUAUGCCCGGGAUAACAUGAGGAUCACCCAUGUGACCGAUUCAUGUCCUGCAGAAGGGUAUGGGA [Mod of ViennaUCT 3 - Jieux - Exclusion 5] (Eterna round: R97, puzzle: Exclusion 5)	Criterion not met
GCACGGAGUGUAGGAUAUCUGUGCGAUUAGCUCAGAGAAGGACACAUGAGGAUCACCCAUGUGUACCUCAACAUUAAUCCGUGC [Eli exng1 - 075] (Eterna round: R96, puzzle: Exclusion NG 1)	Criterion not met
ACAUGAGGAUCACCCAUGUGAAAACAAUGGCUGACUAAGAGAUAGGAUAUAUGUGCAUAUCAAACAUAGAAGGGUCAUUACUGG [Deportation 88 - Jieux - Exclusion NG 3] (Eterna round: R96, puzzle: Exclusion NG 3)	Criterion not met
